B1: ALDH8A1 (parent)
chain: RVAKKLQSGLVWTNCWLIRELNLP

# Variants of: B1
# PROTOCOL_DETAILS: protein stability index of a GFP-peptide fusion (GPS, HEK-293T) (PSI 1-6); higher = more stable;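 further: lentivirally expressed fusions sorted by FACS into six bins by GFP to DsRed ratio, PSI derived from sequencing read proportions per bin multiplied by bin number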
# CONDITION_NOTES: c terminus: a fixed tail appended
PROPERTY_LABEL: protein stability index
Format: numeric value only, no unit, no commentary.

*Q* Which protein stability index value is on record for R1H ?
*A* 2.09

*Q* What about this variant? R19N
*A* 3.94

*Q* W12H , same question.
*A* 2.37

*Q* Repeat with S8I
*A* 1.71

*Q* Another: C15V
*A* 2.65

*Q* Try the variant R1T
*A* 3.94

*Q* And what about the variant K5Y ?
*A* 3.1

*Q* // repeat for P24W and report
*A* 3.34

*Q* And the next one, W16M ?
*A* 3.3

*Q* Would you kindly repeat that for K5H ?
*A* 3.18

*Q* Same thing, different variant: W12E
*A* 2.75

*Q* // repeat for L6C and report
*A* 3.03
